Reference source for all entries: patent US4284786A

Field: LD50. Provide a value for each of the molecules that follow.
experiment: Acute toxicity, intraperitoneal administration to mice; parameters: species or system NMRI mice; details: mouse, in vivo, ip

# query: LD50 of entry Cc1oncc1C(=O)Nc1cccc(C(F)(F)F)c1 [compound C] 100 to 250 mg/kg

Reported LD50, molecule Cc1oncc1C(=O)Nc1cc(C(F)(F)F)cc(C(F)(F)F)c1 [compound D] : ____ > 500 mg/kg

Record request: LD50 value, item Cc1oncc1C(=O)Nc1ccccc1C(F)(F)F [compound E] 300 to 6000 mg/kg

Tell me the measured LD50 of Cc1oncc1C(=O)Nc1ccc(C(F)(F)F)cc1 [compound A] , please. 150 to 300 mg/kg

Query: LD50; subject: Cc1oncc1C(=O)Nc1ccc(F)cc1 [compound B] 200 to 400 mg/kg
